Provenance of the data: the supplement of paper PMC10290057

# Tested on: HCT116;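 note: Luminescence-based viability readout, five doses per compound, normalized against on-plate DMSO and empty-well controls, followed by dose-response curve fitting for every drug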
# assay info: efficacy (fitted maximal change in viability relative to DMSO control); higher = less cytotoxic (negative = loss of viability)
# measurement setup: 48 h
Let's look at some compounds and their measured efficacy.
Quick reminder: number only, in %, skip the unit.

C[C@H]1CN(C[C@@H](C)O1)CC(=O)NC2=CC=C3SC4=C(CC3=C2)C=CC=C4\C5=C\C(=O)\C=C(/O5)N6CCOCC6; -51.9
CNC1CCC(N(Cc2cccc(-c3ccncc3)c2)C(=O)c2sc3c(F)ccc(F)c3c2Cl)CC1 (stereo unspecified); -115
S=C(NCc1ccc2c(c1)OCO2)N1CCN(c2ncnc3c2oc2ccccc23)CC1; -38.8
N#CC1(c2ccc(NC(=O)c3cccnc3NCc3ccncc3)cc2)CCCC1; -32.7

# efficacy of C/C(=C\c1csc(C)n1)[C@@H]1C[C@@H]2O[C@@H]2CCC[C@H](C)[C@H](O)[C@@H](C)C(=O)C(C)(C)[C@@H](O)CC(=O)O1 = -68.2

Lab book: efficacy of O=C(NO)c1cnc(NC2(c3cccc(F)c3)CCCCC2)nc1 noted as -75.6
